The origin of these recorded values is paper PMC9482650.

SYSTEM NAME: DLG4_3, P78352
Sequence (P78352 306-403): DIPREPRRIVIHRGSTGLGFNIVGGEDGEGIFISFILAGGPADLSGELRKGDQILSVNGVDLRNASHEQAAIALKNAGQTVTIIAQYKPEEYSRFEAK
ASSAY OVERVIEW: holdup assay
Set-up: key: below the threshold = too weak to quantify, mostly under pKd 3.1 to 4
CONDITION SUMMARY: plain residues with an end cap or a label only (N-terminal biotin on a linker: ado-ado)
READOUT TYPE: pKd

The examples below pair each entry with its known result.
- BINDER: "PPYRHRNTVV [ERBB4, Q15303]"
  READOUT TYPE: "pKd"
  MEASURED VALUE: 4.23
- BINDER: "SARSRLSSNL [HCN2, Q9UL51]"
  READOUT TYPE: "pKd"
  MEASURED VALUE: "below the threshold"
- BINDER: "LPHPHSTTRV [NLGN2, Q8NFZ4]"
  READOUT TYPE: "pKd"
  MEASURED VALUE: 3.82
- BINDER: "KKMPSIESDV [GRIN2A, Q12879]"
  READOUT TYPE: "pKd"
  MEASURED VALUE: "below the threshold"
- BINDER: "TLPRKRMSSI [GPRC6A, Q5T6X5]"
  READOUT TYPE: "pKd"
  MEASURED VALUE: "below the threshold"
- BINDER: "DDEDRLVIEI [ZNF831, Q5JPB2]"
  READOUT TYPE: "pKd"
  MEASURED VALUE: "below the threshold"

According to the records, this binder CLREWCDAFL [BANF1, O75531] displays pKd of below the threshold

Input PDGQCTVTEV [RNF146, Q9NTX7] . Output pKd: 3.5
